Target: sodium channel isoforms of interest stably expressed in Human Embryonic Kidney Cells (voltage-gated sodium channel, particularly NaV1.1) (Homo sapiens, UniProt P35498)
Assay: automated planar patch clamp assay of sodium channel gating (area under the sodium current trace)
Settings: HEK cells, voltage step from −120 mV to 0 mV, increasing concentrations
Excerpt: A typical assay described in Crestey, F. et al., ACS Chem Neurosci (2015), Vol. 6, pp. 1302-1308, AA43279 (Frederiksen, K. et al., Eur J Neurosci (2017), Vol. 46, pp. 1887-1896) and Lu AE98134 (von Schoubyea, N. L. et al., Neurosci Lett (2018), Vol. 662, pp. 29-35) employs the use of automated planar patch clamp techniques to study the effects of the chemical agent on the gating of sodium channels. […]
pEC50: −log10 of the molar value.
quantity_measured: pEC50

molecule="F[C@H]1CCN(c2nccc(-c3ccccc3)c2-c2nc3c([nH]2)CCCC3)C1 [Example 29]" endpoint_result="> 6.00"
molecule="Fc1ccc(F)c(-c2ccnc(N3CCC(F)(F)C3)c2-c2nc3c([nH]2)CCOC3)c1 [Example 73]" endpoint_result="> 6.00"
molecule="c1ccc(-c2ccnc(N3CCCC3)c2-c2nc3ccccc3[nH]2)nc1 [Example 10]" endpoint_result="4.30 to 5.00"
molecule="FC1(F)CCN(c2nccc(-c3ccccc3)c2-c2nc3c([nH]2)COC2(CCC2)C3)C1 [Example 53]" endpoint_result="5.00 to 6.00"
molecule="c1ccc(-c2cnnc(N3CCCC3)c2-c2nc3ccccc3[nH]2)cc1 [Example 28]" endpoint_result="4.30 to 5.00"
molecule="CC(C)C(=O)N1CCc2nc(-c3c(-c4ccccc4)ccnc3N3CC[C@H](F)C3)[nH]c2C1 [Example 41]" endpoint_result="≤ 4.30"
molecule="FC1(F)C2CN(c3nccc(-c4ccccc4)c3-c3nc4c([nH]3)COCC4)CC21 (stereo not drawn) [Example 45]" endpoint_result="> 6.00"
molecule="CC(C)c1ccc(-c2nnc(-c3c(-c4ccccc4)ccnc3N3CC[C@H](F)C3)o2)cc1 [Example 30]" endpoint_result="5.00 to 6.00"
molecule="FC(F)(F)C1CCN(c2nccc(-c3ccccc3)c2-c2nc3c([nH]2)COCC3)C1 (stereo not drawn) [Example 47]" endpoint_result="5.00 to 6.00"

###

Item-by-item account of pEC50
target: sodium channel isoforms of interest stably expressed in Human Embryonic Kidney Cells (voltage-gated sodium channel, particularly NaV1.1) (Homo sapiens, UniProt P35498); assay: automated planar patch clamp assay of sodium channel gating (area under the sodium current trace); settings: HEK cells, voltage step from −120 mV to 0 mV, increasing concentrations
pEC50: −log10 of the molar value.
quantity_measured: pEC50

molecule="Cc1cc2nc(-c3c(-c4ccccc4F)ccnc3N3CCC(F)(F)C3)[nH]c2cn1 [Example 79]" endpoint_result="> 6.00"
molecule="CC(=O)N1CCc2nc(-c3c(-c4ccccc4)ccnc3N3CC[C@H](F)C3)[nH]c2C1 [Example 37]" endpoint_result="4.30 to 5.00"
molecule="c1ccc(-c2ccnc(N3CC4(COC4)C3)c2-c2nc3c([nH]2)COCC3)cc1 [Example 66]" endpoint_result="5.00 to 6.00"
molecule="CC(C)(C)OC(=O)N1CCc2nc(-c3c(-c4ccccc4)ccnc3N3CC[C@H](F)C3)[nH]c2C1 [Example 34]" endpoint_result="5.00 to 6.00"
molecule="FC(F)(F)C1(CNc2nccc(-c3ccccc3)c2-c2nc3c([nH]2)COCC3)CCC1 [Example 51]" endpoint_result="> 6.00"
molecule="Clc1ccccc1-c1ccnc(N2CCCC2)c1-c1nc2ccccc2[nH]1 [Example 6]" endpoint_result="5.00 to 6.00"
molecule="CCOC(=O)N1CCc2nc(-c3c(-c4ccccc4)ccnc3N3CC[C@H](F)C3)n(C(=O)OCC)c2C1 [Example 40]" endpoint_result="5.00 to 6.00"
molecule="Fc1cc(F)cc(-c2ccnc(N3CCCC3)c2-c2nc3ccccc3[nH]2)c1 [Example 23]" endpoint_result="5.00 to 6.00"

###

target: sodium channel isoforms of interest stably expressed in Human Embryonic Kidney Cells (voltage-gated sodium channel, particularly NaV1.1) (Homo sapiens, UniProt P35498); assay: automated planar patch clamp assay of sodium channel gating (area under the sodium current trace); settings: HEK cells, voltage step from −120 mV to 0 mV, increasing concentrations
pEC50: −log10 of the molar value. Structures can show the parent of a compound that is named as a salt.
Let's look at some compounds and their measured pEC50.
quantity_measured: pEC50

compound="COC1CCc2nc(-c3c(-c4ccccc4)ccnc3N3CCC(F)(F)C3)[nH]c2C1 (stereo not shown)" endpoint_result="> 6.00"
compound=F[C@H]1CCN(c2nccc(C3=CCCC3)c2-c2nc3ccccc3[nH]2)C1 endpoint_result="5.00 to 6.00"
compound=FC1(F)CCN(c2nccc(-c3ccccn3)c2-c2nc3c([nH]2)CCOC3)C1 endpoint_result="4.30 to 5.00"
compound="Fc1ccccc1-c1ccnc(N2CCCC2)c1-c1nc2ccncc2[nH]1 [Example 11, Formic Acid Salt]" endpoint_result="5.00 to 6.00"

###

biological target: sodium channel isoforms of interest stably expressed in Human Embryonic Kidney Cells (voltage-gated sodium channel, particularly NaV1.1) (Homo sapiens, UniProt P35498); test: automated planar patch clamp assay of sodium channel gating (area under the sodium current trace); conditions: HEK cells, voltage step from −120 mV to 0 mV, increasing concentrations
quantity_measured: EC50

compound="CCCCNc1nnc(-c2c(-c3ccccc3F)ccnc2N2CC[C@H](F)C2)o1 [Example 12]" quantity_measured=EC50 endpoint_result="10 to 50 µM"
compound="FC1(F)CCN(c2nccc(-c3ccccc3)c2-c2nc3c([nH]2)CCCC3)C1 [Example 60]" quantity_measured=EC50 endpoint_result="< 1 µM"
compound="Fc1cccc(-c2ccnc(N3CCC(F)(F)C3)c2-c2nc3c([nH]2)CCOC3)c1 [Example 75]" quantity_measured=EC50 endpoint_result="< 1 µM"
compound="FC1(F)CCN(c2nccc(-c3ccc4[nH]ncc4c3)c2-c2nc3c([nH]2)CCOC3)C1 [Example 74]" quantity_measured=EC50 endpoint_result="1 to 10 µM"
compound="CC1(C)Cc2nc(-c3c(-c4cc(F)ccc4F)ccnc3N3CCC(F)(F)C3)[nH]c2CO1 [Example 57]" quantity_measured=EC50 endpoint_result="< 1 µM"
compound="c1ccc(-c2ccnc(N3CCCC3)c2-c2nc3ccccc3[nH]2)cc1 [Example 16]" quantity_measured=EC50 endpoint_result="1 to 10 µM"
compound="Fc1ccccc1-c1ccnc(N2CC[C@H](F)C2)c1-c1nc2ccccc2[nH]1 [Example 18]" quantity_measured=EC50 endpoint_result="1 to 10 µM"
compound="CC(C)CCc1nnc(-c2c(-c3ccccc3O)ccnc2N2CC[C@H](F)C2)o1 [Example 13]" quantity_measured=EC50 endpoint_result="≥ 50 µM"
